system: MCF7; assay: Cytotoxicity against human MCF7 cells assessed as growth inhibition after 48 hrs by MTT assay; format: functional, cell-based; details: MCF7, 48 h
pIC50: −log10 of the molar value.
test readout: pIC50

- compound: "CCc1n(C(c2ccccc2)c2cc3ccccc3o2)cc[n+]1CC(=O)c1ccc(OC)cc1 (stereo not given)"
  comparison sign: "="
  obs value: 5.02
- compound: "O=C(C[n+]1ccn(C(c2ccccc2)c2cc3ccccc3o2)c1)c1ccc(Br)cc1 (stereo not given)"
  comparison sign: "="
  obs value: 4.92
- compound: "O=C(C[n+]1ccn(C(c2ccccc2)c2cc3ccccc3o2)c1)c1ccccc1 (stereo not given)"
  comparison sign: "<"
  obs value: 4.40
- compound: "CCCC[n+]1ccn(C(c2ccccc2)c2cc3ccccc3o2)c1CC (stereo not given)"
  comparison sign: "<"
  obs value: 4.40
- compound: "O=C(C[n+]1cn(C(c2ccccc2)c2cc3ccccc3o2)c2ccccc21)c1ccc(Br)cc1 (stereo not given)"
  comparison sign: "="
  obs value: 5.47
- compound: "c1ccc(C(c2cc3ccccc3o2)n2ccnc2)cc1 (stereo not given)"
  comparison sign: "<"
  obs value: 4.40
- compound: "Cc1n(C(c2ccccc2)c2cc3ccccc3o2)cc[n+]1Cc1ccccc1 (stereo not given)"
  comparison sign: "<"
  obs value: 4.40
- compound: "O=C(C[n+]1ccn(C(c2ccccc2)c2cc3ccccc3o2)c1)c1ccc(O)cc1 (stereo not given)"
  comparison sign: "<"
  obs value: 4.40
- compound: "O=C(C[n+]1ccn(C(c2ccccc2)c2cc3ccccc3o2)c1)c1ccc2ccccc2c1 (stereo not given)"
  comparison sign: "="
  obs value: 5.51
- compound: "CCc1nccn1C(c1ccccc1)c1cc2ccccc2o1 (stereo not given)"
  comparison sign: "<"
  obs value: 4.40
